# Assay protocol: Clearance in C57Bl/6 mouse at 2 mg/kg, iv and 9 mg/kg, po
# Format: ADME, organism-based
# Test parameters: in vivo
Recorded metric: clearance (L/h/kg)

[[record]]
input_smiles = "N#CCNC(=O)[C@@H]1C[C@@H](S(=O)(=O)c2ccccc2)C[C@H]1C(=O)N1CCOCC1"
measure_unit = "L/h/kg"
value_reported = 2.34

[[record]]
input_smiles = "N#CC1(NC(=O)[C@@H]2C[C@@H](S(=O)(=O)c3ccccc3C(F)(F)F)CN2)CC1"
measure_unit = "L/h/kg"
value_reported = 0.096

[[record]]
input_smiles = "CC(=O)N1C[C@H](S(=O)(=O)c2ccccc2Cl)C[C@H]1C(=O)NC1(C#N)CC1"
measure_unit = "L/h/kg"
value_reported = 1.74

